assay: Negative staining transmission electron microscopy of peptide structures; format: physicochemical; details: negative staining TEM
Entries whose Pitch length is below 100 nm take Criterion met; entries at or above 100 nm take Criterion not met.

The examples below pair each entry with its known result.
substance	assigned.class
KYVIQV [15p]	Criterion not met
VQVIYK [12p]	Criterion not met

hey, is Pitch length for QKVVYI [18p] lower than 100 nm or not? Criterion not met

Same question for VQIVYK [ß1, reference compound] please. Criterion not met

Same question for YQVKIV [16p] please. Criterion met

Same question for VKVIYQ [7p] please. Criterion not met

----------
assay: Negative staining transmission electron microscopy of peptide structures; format: physicochemical; details: negative staining TEM

substance	Structures comments
QKVVYI [18p]	Heterogeneous
KVQIVY [10p]	Heterogeneous

----------
test: Negative staining transmission electron microscopy of peptide structures; type: physicochemical; conditions: negative staining TEM
assay.readout: Diameter (nm)
Field: numeric (nm). Do not append units.

// below: answered substances
substance	readout.number
KQIVYV [20p]	13
VKVYIQ [11p]	5
VKVIYQ [7p]	17
VQIVYK [ß1, reference compound]	9

Returns the measured Diameter for the input substance. Input: KYIQVV [2p] 10

Same question for VQVKYI [21p] please. 25

----------
test: Hexapeptide aggregative properties; format: physicochemical; settings: 800 μM (16p: 288 μM)
assay.readout: Aggregation properties, in words

// below: answered substances
substance	Aggregation properties, in words
IYVQKV [9p]	no
VQKIYV [4p]	no
YIVVQK [13p]	no
IKQVYV [5p]	very weak
VKYQVI [3p]	very weak
QVIKYV [23p]	very weak
QKYIVV [8p]	no
KVQYVI [14p]	no

Okay, now this substance:
Returns the measured Aggregation properties, in words for the input substance. Input: VVQKYI [6p] very weak

----------
assay: Negative staining transmission electron microscopy of peptide structures; assay type: physicochemical; details: negative staining TEM
assay.readout: Width (nm)
Field: numeric (nm). Do not append units.

Returns the measured Width for the input substance. Input: QKVYIV [19p] 11

Same question for QKVVYI [18p] please. 29

Same question for KYVIQV [15p] please. 21

Same question for YQVIVK [17p] please. 14

Same question for YQVKIV [16p] please. 22

----------
type: physicochemical; conditions: 800 μM
assay.readout: Classification of the peptide (aggregative / amyloid / soluble), in words

// below: answered substances
substance	result
VQVIYK [12p]	amyloid
YQVIVK [17p]	aggregative
QKYIVV [8p]	entirely soluble
QKVVYI [18p]	amyloid

Returns the measured Classification of the peptide (aggregative / amyloid / soluble), in words for the input substance. Input: YIVVQK [13p] entirely soluble

Same question for QKVYIV [19p] please. aggregative

Same question for KVQIVY [10p] please. aggregative

Same question for KQIVYV [20p] please. aggregative

Same question for KVQYVI [14p] please. entirely soluble
